experiment: NCI Yeast Anticancer Drug Screen. Data for the mec2-1 strain (AID 157); conditions: S. cerevisiae mec2-1 strain, at 3.7 µM, active compounds read high
The panel holds about 79,000 compounds, 15% with a hit somewhere; the sample as a whole holds those more often.
I'd appreciate it if you could supply growth inhibition values for the items below.
Could you give me the number in %? Just the number is fine.

# input Which growth inhibition reading was recorded for the compound O=c1c2ccccc2nc(-c2cccc([N+](=O)[O-])c2)n1O ?
# output 19

# input Which growth inhibition reading was recorded for the compound CCCNCC(=O)O[C@]1(CC)C(=O)OCc2c1cc1n(c2=O)Cc2cc3ccccc3nc2-1 ?
# output 33

# input Which growth inhibition reading was recorded for the compound Cc1cc(Cl)ccc1NC(=O)/C(Cl)=C(/Cl)C(=O)O ?
# output 6

# input Which growth inhibition reading was recorded for the compound CSc1nc(-c2ccccc2)nc(=[N+]2CCOCC2)s1 ?
# output 8

# input Which growth inhibition reading was recorded for the compound COC(=N)c1ccc(O)c(C)c1 ?
# output 0

# input Which growth inhibition reading was recorded for the compound CCCCS(=O)(=O)Nc1ccc(Nc2c3ccccc3nc3ccccc23)c(OC)c1 ?
# output -9

# input Which growth inhibition reading was recorded for the compound CC1=NN(C(=O)CC(=O)NC(=O)/C=C\c2ccccc2)C(=O)C1N=Nc1ccc([N+](=O)[O-])cc1 (stereo unspecified) ?
# output 8

# input Which growth inhibition reading was recorded for the compound N#CCCC1C(C#N)C2(Cl)CC1(Cl)C(Cl)=C2Cl (stereo unspecified) ?
# output -8

# input Which growth inhibition reading was recorded for the compound O=C(CCCN1CCC(Nc2ccc(F)cc2)(c2nnnn2C2CCCCC2)CC1)c1ccc(F)cc1 ?
# output -8

# input Which growth inhibition reading was recorded for the compound CC1(C)CC(=O)C(C(=O)Nc2cccs2)=C(O)C1 ?
# output -18

# input Which growth inhibition reading was recorded for the compound O=Cc1ccccc1C=O ?
# output -22

# input Which growth inhibition reading was recorded for the compound COc1c2c(c3c(c1CCC(=O)O)OC(C)(C)C=C3)OC(C)(C)C=C2 ?
# output 2

# input Which growth inhibition reading was recorded for the compound Cc1ccc(NC(Nc2ccc(C)cc2C)=C(C(Cl)=C(Cl)Cl)[N+](=O)[O-])c(C)c1 ?
# output 5

# input Which growth inhibition reading was recorded for the compound CC(C)NCCCNc1c2ccccc2nc2cccc([N+](=O)[O-])c12 ?
# output 97

# input Which growth inhibition reading was recorded for the compound O=C(c1ccccc1)[C@H]1Nc2ccc(Cl)cc2[C@H]2OCCC[C@@H]12 ?
# output -25

# input Which growth inhibition reading was recorded for the compound COc1cc2c(cc1O)[C@H](C)C(c1ccccc1OC)O2 (stereo partly specified) ?
# output -15
